System: Luciferin 4-monooxygenase (Photinus pyralis) (UniProt P08659)
Experimental details: qHTS of Nrf2 Activators: Hit Validation in Secondary FLuc Assay; further: nearly all actives have a fitted effect of over 65% in size
Condition label: firefly luciferase inhibition counter-screen, luminescence; series mostly up to 57.5 µM
The whole screen tested about 1,100 compounds, of which about 390 (35%) were called active. Another 30% or so got no clear call; they are omitted. The call rests on the fitted dose curve; in most records, active means well fitted inhibition curve with a large enough effect; inconclusive means small, poorly fitted or top-dose-only effect; inactive means flat fitted curve, though single readings scatter. Some of the results follow.
Form entry, call: pick from T = active, F = inactive

Worked cases, answers included:
O=C(O)c1ccc([N+](=O)[O-])c([N+](=O)[O-])c1 ... F
NC(=O)c1c(NC(=O)c2ccccc2F)sc2c1CCC2 ... T
Clc1cccc(/C=N\Nc2nccs2)c1 ... T

Would you mind telling me which call this test gave "Clc1ccccc1Nc1ncnc(-n2cccc2)n1" ? T

Would you mind telling me which call this test gave "Fc1cccc(F)c1-c1nc(-c2ccc(Cl)cc2)no1" ? T
